From: patent US20260151494A1

# measuredOn: T1, apical domain of cynomolgus CD71 (cynomolgus, UniProt A0A2K5X958 189-383)
# T1 construct: domain: apical domain; also called Cyno apical domain
# assayProtocol: primary ELISA, signal ratio to HSA
endpointName: Cyno apical domain:HSA

binder	observedMeasurement
CD71-binding FN3 domain of SEQ ID NO: 125 (designed binder) MSLPAPKNLVVSRVTEDSARLSWTAPDAAFDSFYIAYAEPRPDGEAIILLVPGSERSYDLTGLKPGTEYSVLIHGVKGGLLSSPLHAHFTT	153

[1] CD71-binding FN3 domain of SEQ ID NO: 129 (designed binder) MGGSLPAPKNLVVSRVTEDSARLSWTAPDAAFDSFEIGYFENLYLGEAIVLTVPGSERSYDLTGLKPGTEYWVQIGGVKGGNWSAPLSAIFTT
[2] CD71-binding FN3 domain of SEQ ID NO: 144 (designed binder) MSLPAPKNLVVSRVTEDSARLSWTAPDAAFDSFEIGYFENLYLGEAIVLTVPGSERSYDLTSLKPGTEYWVQIGGVKGGNWSAPLSATFTT
[3] CD71-binding FN3 domain of SEQ ID NO: 156 (designed binder) MSLPAPKNLVVSRVTEDSARLSWTAPDAAFDSFEIGYFEMSWTGEAIVLTVPGSERSYDLTGLKPGTEYVVFIGGVKGGNWSAPLSAIFTT
[4] CD71-binding FN3 domain of SEQ ID NO: 207 (designed binder) MSLPAPKNLVVSRVTEDSARLSWTAPDAAFDSFEIGYWENAYKGEAIVLTVPGSERSYDLTGLKPGTEYVVFIGGVKGGVWSVPLSAISTT
Please produce an ascending ranking of these binders based on Cyno apical domain:HSA. Please list each label once, in the requested order. 4, 3, 2, 1
